test system: Pseudomonas BRK 12-4-4; experiment: In vitro minimal inhibitory concentration, Pseudomonas BRK 12-4-4; assay type: cell-based; settings: BRK1244
Entries and their measured MIC follow.
readoutType: MIC (µg/mL)

molecule	readoutType	resultUnit	assayResult
CC(=O)N[C@@H](C)C(=O)Nc1ccc(-c2ccc(C(=O)N[C@@H](C(=O)NC3C(=O)N4C(C(=O)O)=C(CSc5nnnn5C)CSC34)c3ccccc3)c(=O)[nH]2)cc1 (some centres unmarked)	MIC	µg/mL	12.5
CC(=O)N[C@H](C)C(=O)Nc1cccc(-c2ccc(C(=O)N[C@@H](C(=O)NC3C(=O)N4C(C(=O)O)=C(COC(C)=O)CSC34)c3ccccc3)c(=O)[nH]2)c1 (some centres unmarked)	MIC	µg/mL	25
CC(=O)N[C@H](CCC(N)=O)C(=O)Nc1ccc(-c2ccc(C(=O)N[C@@H](C(=O)NC3C(=O)N4C(C(=O)O)=C(CSc5nnnn5CC(=O)O)CSC34)c3ccccc3)c(=O)[nH]2)cc1 (some centres unmarked)	MIC	µg/mL	12.5
CC(=O)NCCCC[C@H](NC(C)=O)C(=O)Nc1ccc(-c2ccc(C(=O)N[C@@H](C(=O)NC3C(=O)N4C(C(=O)O)=C(COC(C)=O)CSC34)c3ccccc3)c(=O)[nH]2)cc1 (some centres unmarked)	MIC	µg/mL	12.5
CC(=O)NCCCCC(NC(C)=O)C(=O)Nc1ccc(-c2ccc(C(=O)N[C@@H](C(=O)NC3C(=O)N4C(C(=O)O)=C(CSc5nnnn5C)CSC34)c3ccccc3)c(=O)[nH]2)cc1 (mixture of isomers)	MIC	µg/mL	12.5

====

Record: MIC reported on Klebs. Pneum. MGH 2.

molecule	MIC [µg/mL]
CC(=O)N1CCC[C@H]1C(=O)Nc1ccc(-c2ccc(C(=O)N[C@@H](C(=O)NC3C(=O)N4C(C(=O)O)=C(CSc5nnnn5C)CSC34)c3ccccc3)c(=O)[nH]2)cc1 (some centres unmarked) [Example 2]	1.6
CC(=O)N[C@H](CC(N)=O)C(=O)Nc1ccc(-c2ccc(C(=O)N[C@@H](C(=O)NC3C(=O)N4C(C(=O)O)=C(CSc5nnnn5C)CSC34)c3ccccc3)c(=O)[nH]2)cc1 (some centres unmarked) [Example 23]	1.6
CC(=O)N[C@H](C)C(=O)Nc1ccc(-c2ccc(C(=O)N[C@@H](C(=O)NC3C(=O)N4C(C(=O)O)=C(COC(N)=O)CSC34)c3ccccc3)c(=O)[nH]2)cc1 (some centres unmarked) [Example 24]	12.5
CC(=O)N[C@@H](CCC(N)=O)C(=O)Nc1ccc(-c2ccc(C(=O)N[C@@H](C(=O)NC3C(=O)N4C(C(=O)O)=C(CSc5nnnn5CS(=O)(=O)O)CSC34)c3ccccc3)c(=O)[nH]2)cc1 (some centres unmarked) [Example 42]	3.1
CC(=O)N[C@@H](C)C(=O)Nc1ccc(-c2ccc(C(=O)N[C@@H](C(=O)NC3C(=O)N4C(C(=O)O)=C(CSc5nnnn5C)CSC34)c3ccccc3)c(=O)[nH]2)cc1 (some centres unmarked) [Example 20]	1.6

====

Entries and their measured MIC follow.
test system: Pseudomonas #28; test: In vitro minimal inhibitory concentration, Pseudomonas #28; assay type: cell-based; conditions: Pseudomonas #28; in vitro; read-out: Minimal Inhibitory Concentration
readoutType: MIC (µg/mL)

compound	assayResult
CC(=O)N[C@H](C)C(=O)Nc1ccc(-c2ccc(C(=O)N[C@@H](C(=O)NC3C(=O)N4C(C(=O)O)=C(CSc5nnnn5CCC(=O)O)CSC34)c3ccccc3)c(=O)[nH]2)cc1 (stereo partly shown)	6.3
CC(=O)NC(C)C(=O)Nc1ccc(-c2ccc(C(=O)N[C@@H](C(=O)NC3C(=O)N4C(C(=O)O)=C(COC(C)=O)CSC34)c3ccccc3)c(=O)[nH]2)cc1 (mixture of isomers)	12.5
CC(=O)NC(C)C(=O)Nc1ccc(-c2ccc(C(=O)N[C@@H](C(=O)NC3C(=O)N4C(C(=O)O)=C(CSc5nnnn5C)CSC34)c3ccccc3)c(=O)[nH]2)cc1 (mixture of isomers)	6.3
CC(=O)N1CCC[C@H]1C(=O)Nc1ccc(-c2ccc(C(=O)N[C@@H](C(=O)NC3C(=O)N4C(C(=O)O)=C(CSc5nnnn5C)CSC34)c3ccccc3)c(=O)[nH]2)cc1 (stereo partly shown)	12.5
CC(=O)N[C@H](CCC(N)=O)C(=O)Nc1ccc(-c2ccc(C(=O)N[C@@H](C(=O)NC3C(=O)N4C(C(=O)O)=C(CSc5nnnn5CC(=O)O)CSC34)c3ccccc3)c(=O)[nH]2)cc1 (stereo partly shown)	6.3
CC(=O)N[C@H](C)C(=O)Nc1ccc(-c2ccc(C(=O)N[C@@H](C(=O)NC3C(=O)N4C(C(=O)O)=C(COC(N)=O)CSC34)c3ccccc3)c(=O)[nH]2)cc1 (stereo partly shown)	12.5
CC(=O)N[C@H](C)C(=O)Nc1ccc(-c2ccc(C(=O)N[C@@H](C(=O)NC3C(=O)N4C(C(=O)O)=C(COC(C)=O)CSC34)c3ccc(O)cc3)c(=O)[nH]2)cc1 (stereo partly shown)	1.6
CC(=O)OCC1=C(C(=O)O)N2C(=O)C(NC(=O)[C@H](NC(=O)c3ccc(-c4ccc(NC(=O)C5CCCN5C(C)=O)cc4)[nH]c3=O)c3ccccc3)C2SC1 (mixture of isomers)	12.5
CC(=O)NC(C)C(=O)Nc1ccc(-c2ccc(C(=O)N[C@@H](C(=O)NC3C(=O)N4C(C(=O)O)=C(COC(N)=O)CSC34)c3ccccc3)c(=O)[nH]2)cc1 (mixture of isomers)	3.1
CC(=O)N[C@@H](CCC(N)=O)C(=O)Nc1ccc(-c2ccc(C(=O)N[C@@H](C(=O)NC3C(=O)N4C(C(=O)O)=C(CSc5nnnn5CC(=O)O)CSC34)c3ccccc3)c(=O)[nH]2)cc1 (stereo partly shown)	6.3

====

system: Serr. Mar. IMM 16

compound	valueQualifier	MIC (µg/mL)
CC(=O)N[C@@H](CCC(N)=O)C(=O)Nc1ccc(-c2ccc(C(=O)N[C@@H](C(=O)NC3C(=O)N4C(C(=O)O)=C(CSc5nnnn5CC(=O)O)CSC34)c3ccccc3)c(=O)[nH]2)cc1 (some centres unmarked)	=	12.5
CC(=O)OCC1=C(C(=O)O)N2C(=O)C(NC(=O)[C@H](NC(=O)c3ccc(-c4ccc(NC(=O)[C@@H]5CC(OC(C)=O)CN5C(C)=O)cc4)[nH]c3=O)c3ccccc3)C2SC1 (some centres unmarked)	>	50
CC(=O)N[C@H](CCC(N)=O)C(=O)Nc1ccc(-c2ccc(C(=O)N[C@@H](C(=O)NC3C(=O)N4C(C(=O)O)=C(CSc5nnnn5CC(=O)O)CSC34)c3ccccc3)c(=O)[nH]2)cc1 (some centres unmarked)	=	12.5
CC(=O)N[C@@H](CCC(N)=O)C(=O)Nc1ccc(-c2ccc(C(=O)N[C@@H](C(=O)NC3C(=O)N4C(C(=O)O)=C(COC(C)=O)CSC34)c3ccccc3)c(=O)[nH]2)cc1 (some centres unmarked)	=	50
CC(=O)N[C@H](C)C(=O)Nc1cccc(-c2ccc(C(=O)N[C@@H](C(=O)NC3C(=O)N4C(C(=O)O)=C(COC(C)=O)CSC34)c3ccccc3)c(=O)[nH]2)c1 (some centres unmarked)	>	50
Cn1nnnc1SCC1=C(C(=O)O)N2C(=O)C(NC(=O)[C@H](NC(=O)c3ccc(-c4ccc(NC(=O)[C@@H]5CCC(=O)N5)cc4)[nH]c3=O)c3ccccc3)C2SC1 (some centres unmarked)	=	12.5
O=C(O)Cn1nnnc1SCC1=C(C(=O)O)N2C(=O)C(NC(=O)[C@H](NC(=O)c3ccc(-c4ccc(NC(=O)[C@@H]5CCC(=O)N5)cc4)[nH]c3=O)c3ccccc3)C2SC1 (some centres unmarked)	=	6.3
CC(=O)N[C@H](C)C(=O)Nc1ccc(-c2ccc(C(=O)N[C@@H](C(=O)NC3C(=O)N4C(C(=O)O)=C(COC(C)=O)CSC34)c3ccc(O)cc3)c(=O)[nH]2)cc1 (some centres unmarked)	=	50
CC(=O)NCCCCC(NC(C)=O)C(=O)Nc1ccc(-c2ccc(C(=O)N[C@@H](C(=O)NC3C(=O)N4C(C(=O)O)=C(CSc5nnnn5C)CSC34)c3ccccc3)c(=O)[nH]2)cc1 (mixture of isomers)	=	50
CC(=O)N[C@H](C)C(=O)Nc1ccc(-c2ccc(C(=O)N[C@@H](C(=O)NC3C(=O)N4C(C(=O)O)=C(CSc5nnnn5C)CSC34)c3ccc(O)cc3)c(=O)[nH]2)cc1 (some centres unmarked)	=	12.5
CC(=O)N[C@@H](C)C(=O)Nc1ccc(-c2ccc(C(=O)N[C@@H](C(=O)NC3C(=O)N4C(C(=O)O)=C(CSc5nnc(C)s5)CSC34)c3ccccc3)c(=O)[nH]2)cc1 (some centres unmarked)	=	25

====

test system: Klebs. Pneum. MGH 2
readoutType: MIC (µg/mL)

compound	target	resultUnit	assayResult
CC(=O)N[C@H](C)C(=O)Nc1ccc(-c2ccc(C(=O)N[C@@H](C(=O)NC3C(=O)N4C(C(=O)O)=C(COC(C)=O)CSC34)c3ccc(O)cc3)c(=O)[nH]2)cc1 (some centres unmarked) [Example 8]	Klebs. Pneum. MGH 2	µg/mL	6.3
CC(=O)NC(C)C(=O)Nc1ccc(-c2ccc(C(=O)N[C@@H](C(=O)NC3C(=O)N4C(C(=O)O)=C(COC(C)=O)CSC34)c3ccccc3)c(=O)[nH]2)cc1 (mixture of isomers) [Example 3]	Klebs. Pneum. MGH 2	µg/mL	6.3
CC(=O)N[C@H](C)C(=O)Nc1ccc(-c2ccc(C(=O)N[C@@H](C(=O)NC3C(=O)N4C(C(=O)O)=C(CSc5nnnn5CC(=O)O)CSC34)c3ccccc3)c(=O)[nH]2)cc1 (some centres unmarked) [Example 1]	Klebs. Pneum. MGH 2	µg/mL	3.1
CC(=O)OCC1=C(C(=O)O)N2C(=O)C(NC(=O)[C@H](NC(=O)c3ccc(-c4ccc(NC(=O)C5CCCN5C(C)=O)cc4)[nH]c3=O)c3ccccc3)C2SC1 (mixture of isomers) [Example 17]	Klebs. Pneum. MGH 2	µg/mL	12.5
CC(=O)N1CC(O)C[C@H]1C(=O)Nc1ccc(-c2ccc(C(=O)N[C@@H](C(=O)NC3C(=O)N4C(C(=O)O)=C(CSc5nnnn5CC(=O)O)CSC34)c3ccccc3)c(=O)[nH]2)cc1 (some centres unmarked) [Example 30]	Klebs. Pneum. MGH 2	µg/mL	1.6
